Tested on: Pseudomonas aeruginosa ATCC 9027
Type: cell-based
Details: ATCC 9027, 18 h
Square brackets hold non-standard residues; d marks the D form. Peptide text beside a SMILES is read from it. * marks the point of attachment. Palmitoyl = CCCCCCCCCCCCCCCC(=O)*; Orn = NCCC[C@H](N)C(=O)O; Dab = NCC[C@H](N)C(=O)O
For each record, write down the corresponding MIC, P. aeruginosa.
The reply should contain only the number, in µg/mL.

Ask: What value of MIC, P. aeruginosa has been reported for the following compound? CCCCCCCCCCCCCCCC(=O)NCCC[C@H](NC(=O)[C@H](CCCCN)NC(=O)[C@@H](N)CCCCN)C(=O)N[C@@H](CCCCN)C(=O)N[C@@H](CCCCN)C(N)=O [KK(OC16)KK-NH2] (H-KK[Orn](Palmitoyl)KK-NH2)
Result: 32

Ask: Data request, read-out MIC, P. aeruginosa, for CCCCCCCCCCCCCCCC(=O)NCCC[C@H](NC(=O)[C@@H](N)CCCCN)C(=O)N[C@@H](CCCCN)C(N)=O [K(OC16)K-NH2]
Result: 8

Ask: Consider the compound shown here: CCCCCCCCCCCCCCCC(=O)NCC[C@H](NC(=O)[C@H](CCCCN)NC(=O)[C@@H](N)CCCCN)C(=O)N[C@@H](CCCCN)C(=O)N[C@@H](CCCCN)C(N)=O [KK(DabC16)KK-NH2] (H-KK[Dab](Palmitoyl)KK-NH2) What is its recorded MIC, P. aeruginosa?
Result: 32
